pIC50: −log10 of the molar value.
Recorded pIC50 values (COX-2 (Ovis aries, UniProt P79208)) are given below.

{"molecule": "C=CC1(C)CC=C2C(CCC3C(C)(C=CC=CC(=O)NS(=O)(=O)c4ccc(I)cc4)CCCC23C)C1 (stereo not shown)", "target": "COX-2 (Ovis aries, UniProt P79208)", "qual": "=", "pIC50": 4.59}
{"molecule": "CON=CCC1(C)CC=C2C(CCC3C(C)(C(=O)O)CCCC23C)C1 (stereo not shown)", "target": "COX-2 (Ovis aries, UniProt P79208)", "qual": "<", "pIC50": 2.70}
{"molecule": "C=CC1(C)CC=C2C(CCC3C(C)(CC(=O)O)CCCC23C)C1 (stereo not shown)", "target": "COX-2 (Ovis aries, UniProt P79208)", "qual": "=", "pIC50": 4.08}
{"molecule": "C=C[C@@]1(C)CC=C2C(CCC3[C@@]2(C)CCC[C@@]3(C)/C=C/C(=O)O)C1 (stereo partly drawn) [Example 7, 4-Carboxyvinyl-(−)-pimara-9(11),15-diene]", "target": "COX-2 (Ovis aries, UniProt P79208)", "qual": "=", "pIC50": 4.16}
{"molecule": "C=CC1(C)CC=C2C(CCC3C(C)(C(=O)NC)CCCC23C)C1 (stereo not shown)", "target": "COX-2 (Ovis aries, UniProt P79208)", "qual": "<", "pIC50": 2.70}
{"molecule": "C=C[C@@]1(C)CC=C2C(CCC3[C@](C)(C(=O)O)CCC[C@@]23C)C1 (single isomer, unassigned; (-)) [Natural Component, reference compound]", "target": "COX-2 (Ovis aries, UniProt P79208)", "qual": "=", "pIC50": 3.10}
{"molecule": "CC1(CCO)CC(O)C2C(CCC3C(C)(C(=O)O)CCCC23C)C1 (stereo not shown)", "target": "COX-2 (Ovis aries, UniProt P79208)", "qual": "<", "pIC50": 2.70}
{"molecule": "C=C[C@@]1(C)CC=C2C(CCC3[C@@]2(C)CCC[C@@]3(C)/C=C/C=C/C(=O)O)C1 (stereo partly shown)", "target": "COX-2 (Ovis aries, UniProt P79208)", "qual": "=", "pIC50": 4.57}
{"molecule": "C=CC1(C)CC=C2C(CCC3C(C)(CCC(=O)NS(=O)(=O)c4ccc(I)cc4)CCCC23C)C1 (stereo not shown)", "target": "COX-2 (Ovis aries, UniProt P79208)", "qual": "=", "pIC50": 4.22}
{"molecule": "C=CC1(C)CC=C2C(CCC3C(C)(CC(=O)NS(=O)(=O)c4ccc(I)cc4)CCCC23C)C1 (stereo not shown)", "target": "COX-2 (Ovis aries, UniProt P79208)", "qual": "=", "pIC50": 4.14}
{"molecule": "C=C[C@@]1(C)CC=C2C(CCC3[C@](C)(C(=O)NN)CCC[C@@]23C)C1 (stereo partly drawn) [Example 13, 4-Carbazoyl-(−)-pimara-9(11), 15-diene]", "target": "COX-2 (Ovis aries, UniProt P79208)", "qual": "=", "pIC50": 4.38}
{"molecule": "C=CC1(C)CC=C2C(CCC3C(C)(C(=O)NO)CCCC23C)C1 (stereo not shown)", "target": "COX-2 (Ovis aries, UniProt P79208)", "qual": "=", "pIC50": 3.09}
{"molecule": "COCC[C@@]1(C)CC=C2[C@@H](CC[C@@H]3[C@](C)(C(=O)O)CCC[C@@]23C)C1", "target": "COX-2 (Ovis aries, UniProt P79208)", "qual": "<", "pIC50": 2.70}
{"molecule": "C=C[C@@]1(C)CC=C2[C@@H](CC[C@@H]3[C@](C)(CCC(=O)O)CCC[C@@]23C)C1 [Example 9, 4-Carboxyethyl-(−)-pimara-9(11),15-diene]", "target": "COX-2 (Ovis aries, UniProt P79208)", "qual": "=", "pIC50": 3.98}
{"molecule": "C=C[C@@]1(C)CC=C2C(CCC3[C@](C)(C(N)=O)CCC[C@@]23C)C1 (stereo partly drawn) [Example 11, 4-Carbamoyl-(−)-pimara-9(11), 15-diene]", "target": "COX-2 (Ovis aries, UniProt P79208)", "qual": "<", "pIC50": 2.70}
{"molecule": "C=CC1(C)CC=C2C(CCC3C(C)(CCC(=O)NS(C)(=O)=O)CCCC23C)C1 (stereo not shown)", "target": "COX-2 (Ovis aries, UniProt P79208)", "qual": "=", "pIC50": 3.75}

* * *

- method description: Cytotoxicity, MTT assay
- Assay type: cell-based
- condition description: mouse, Raw 264.7 cells; Raw 264.7, MTT assay at 48 hours after sample treatment
- Procedure: To investigate the utility of diterpene derivatives synthesized, cytotoxicities of some derivatives were tested. The cytotoxicity was tested using Raw 264.7. The cytotoxicity and non-cytotoxicity were judged by performing MTT assay at 48 hours after sample treatment.
observation type: IC50 at 48 h (µM)

{"compound": "C=C[C@@]1(C)CC=C2C(CCC3[C@@]2(C)CCC[C@@]3(C)/C=C/C(=O)O)C1 (stereo partly drawn) [Example 7, 4-Carboxyvinyl-(−)-pimara-9(11),15-diene]", "measured result": 139}
{"compound": "C[C@]1(CCO)CC=C2C(CCC3[C@](C)(C(=O)O)CCC[C@@]23C)C1 (stereo partly drawn)", "measured result": 139}
{"compound": "C=C[C@@]1(C)CC=C2[C@@H](CC[C@@H]3[C@](C)(CCC(=O)O)CCC[C@@]23C)C1 [Example 9, 4-Carboxyethyl-(−)-pimara-9(11),15-diene]", "measured result": 114}

Hello, the source for this data is patent US6593363B1, in case you need it.
